Reference source: the array DNA melting data of Ke et al. (doi:10.1101/2024.01.08.574731)

Assay: folding enthalpy; higher = less favourable; fluorescence melt of hairpins on a sequencing array, two-state fit
Conditions: sodium 0.088 M
In this scheme, each record receives a class according to its folding enthalpy; the ranges are interval 1 (below -40 kcal/mol), interval 2 (-40 kcal/mol to below -20 kcal/mol), interval 3 (-20 kcal/mol or more)

[Q] Which folding enthalpy category applies to GAGCGCGCGAAAGCGCTC (((..(((....)))))) here?
[A] interval 3

[Q] Which folding enthalpy category applies to GACACGCGAAAGCGGTC (((.(((....)))))) here?
[A] interval 3

[Q] Which folding enthalpy category applies to GCATTGCGAAAGCTGTGC (((..((....))..))) here?
[A] interval 2

[Q] Which folding enthalpy category applies to GCTCCGCGAAAGCGTTGC ((..(((....)))..)) here?
[A] interval 3

[Q] Which folding enthalpy category applies to GCCGTGCGAAAGCACAGC ((.((((....)))).)) here?
[A] interval 3

[Q] Which folding enthalpy category applies to GGGTCCGAAAGGAACCC ((((((....))).))) here?
[A] interval 2

[Q] Which folding enthalpy category applies to GAGTGCGGAAACGCATTC ((.((((....)))).)) here?
[A] interval 2

[Q] Which folding enthalpy category applies to GATCGAGGAATCGATC ((((((....)))))) here?
[A] interval 2

[Q] Which folding enthalpy category applies to GATCCCGAAAGGGGCATC ((((((....)))..))) here?
[A] interval 3

[Q] Which folding enthalpy category applies to GTGGTACGAAAGTAGCAC (((.(((....))).))) here?
[A] interval 1

[Q] Which folding enthalpy category applies to GCCTCGCGAAAGCTTGGC (((..((....))..))) here?
[A] interval 2

[Q] Which folding enthalpy category applies to GATCTATCATTAGATC ((((((....)))))) here?
[A] interval 2

[Q] Which folding enthalpy category applies to GTAAGGAAACTTAC (((((....))))) here?
[A] interval 3

[Q] Which folding enthalpy category applies to GAGCATGGAAACACGCTC ((((.((....)).)))) here?
[A] interval 2

[Q] Which folding enthalpy category applies to GCACGGGGAAACCTGTGC ((((.((....)).)))) here?
[A] interval 2

[Q] Which folding enthalpy category applies to GCAAAGCGAAAGCATTGC ((((.((....)).)))) here?
[A] interval 2

[Q] Which folding enthalpy category applies to GGATCAGGAAACTGATTC (.(((((....))))).) here?
[A] interval 2

[Q] Which folding enthalpy category applies to GCTTTGCGAAAGCATAGC (((.(((....))).))) here?
[A] interval 1

[Q] Which folding enthalpy category applies to GATCGCTAGGCGATC ((((((...)))))) here?
[A] interval 2

[Q] Which folding enthalpy category applies to GCGAGAGGAAACTCCCGC (((.(((....))).))) here?
[A] interval 2

[Q] Which folding enthalpy category applies to GATCATCGCGATGATC ((((((....)))))) here?
[A] interval 1

[Q] Which folding enthalpy category applies to GATCGAGTTTTCGATC ((((((....)))))) here?
[A] interval 1

[Q] Which folding enthalpy category applies to CGCGTCGGAAACGAGGCG (((.(((....))).))) here?
[A] interval 1

[Q] Which folding enthalpy category applies to GAAACCGGAAACGATTTC ((((.((....)).)))) here?
[A] interval 2

[Q] Which folding enthalpy category applies to GCTCTAGGAAACTAGGGC ((.((((....)))).)) here?
[A] interval 2
